- Assay explanation: Tmax in one day castrated cynomolgus monkey at 42 mg/kg, po bid
- Format: ADME, organism-based, Macaca fascicularis
- Condition notes: male, in vivo
Reported endpoint: Tmax (h)
One number for each entry, in h.

Which Tmax reading was recorded for the molecule C[C@]12CC[C@H](O)CC1=CC[C@@H]1C2CC[C@]2(C)C(c3cccnc3)=CCC12 (stereo partly specified) ?
1

====

- Assay explanation: Metabolic stability in human liver microsomes assessed as parent compound remaining at 0.5 uM incubated for 10 mins
- Assay type: ADME
- Condition notes: read-out: Stability
Reported endpoint: remaining at 10 min, 0.5 µM (%)
One number for each entry, in %.

Worked cases, remaining at 10 min, 0.5 µM given:
Cc1ccncc1-c1cccc2c1cnn2-c1nccs1 : 69
Cc1ccncc1-c1cccc2c1ncn2-c1ccccn1 : 96
Cc1ccncc1-c1cccc2c1cnn2-c1ccccc1 : 78
Cc1ccncc1-c1cccc2c1ncn2CC(F)(F)F : 90
Cc1ccncc1-c1cccc2c1ncn2-c1nccs1 : 92
Cc1ccncc1-c1cccc2c1cnn2-c1cccnn1 : 89

Need remaining at 10 min, 0.5 µM for each of these compounds.
1. Cc1ccncc1-c1cccc2c1ncn2-c1cscn1
2. Cc1ccncc1-c1cccc2c1cnn2-c1ccccn1

1: 90; 2: 95

Values were extracted from ChEMBL document CHEMBL3779801.
